# targetOfAssay: RET kinase V804M (Homo sapiens, UniProt P07949, V804M)
# assay: RET Enzyme Assay (CisBio HTRF KinEASE-TK), V804M
# Assay type: biochemical
# setupConditions: read-out: RET V804M Enz FRET IC50
pIC50: −log10 of the molar value.
testReadout: pIC50

Examples with their reported pIC50 follow.
compound | pIC50
CC(C)n1c2c(c3c(N)ncnc31)-c1noc(C3CC3)c1S(=O)(=O)NC2 [Example 21, 2,2,2-trifluoroacetate] | 7.36
CC(C)n1c2c(c3c(N)ncnc31)-c1c(Cl)c3ccc(C(=O)NC4CC4)cc3n1CCC2 | 6.32
CC(C)(O)[C@H]1C[C@@H](n2c3c(c4c(N)ncnc42)-c2noc(C4CC4)c2C(O)CC3)C1 (stereo partly shown) | 6.42

1. CC(=O)N1CCC(n2c3c(c4c(N)ncnc42)-c2noc(C4CC4)c2C(O)CC3)C1 (stereo not shown) [Example 134, 2,2,2-trifluoroacetate]
2. CCN1Cc2c(c3c(N)ncnc3n2C(C)C)-c2noc(C3CC3)c2C1=O
3. Nc1ncnc2c1c1c(n2C2CCC(O)C2)CCC(O)c2c-1noc2C1CC1 (stereo not shown)
4. COC(=O)[C@H]1C[C@@H](n2c3c(c4c(N)ncnc42)-c2noc(C4CC4)c2C(O)CC3)C1 (stereo partly shown)
Task item: Rank order required: pIC50, descending. A ranking is expressed here by listing the labels in the requested order.
Reply: 3, 4, 2, 1
(3: 7.68, 4: 7.22, 2: 6.69, 1: 6.45)

====

Listed here: molecules with reported IC50 for G810S mutant RET kinase (Homo sapiens, UniProt P07949, G810S).
testReadout: IC50 (nM)

a. COC(=O)[C@H]1C[C@H](n2c3c(c4c(N)ncnc42)-c2noc(C4CC4)c2C(=O)CC3)C1 [Example 142]
b. C[C@H](n1c2c(c3c(N)ncnc31)-c1noc(C3CC3)c1[C@H](O)CC2)C(F)(F)F (single isomer, unassigned) [Example 145]
c. Nc1ncnc2c1c1c(n2C2CCNC2)CCC(O)c2c-1noc2C1CC1 (stereo not shown) [Example 132]
d. Nc1ncnc2c1c1c(n2C2CCNC2)CCC(O)c2c-1noc2C1CC1 (stereo not shown) [Example 133]
Task item: // smallest IC50 at index 0, largest at the end Answer format: the labels, in the requested order.
Reply: b, a, c, d
(b: 101 nM, a: 425 nM, c: 2320 nM, d: 3400 nM)

====

# targetOfAssay: HEK-293 cells expressing a G810S mutant RET Kif5b-RET fusion protein (Homo sapiens, UniProt P07949, G810S)
# Construct: KIF5B (N-terminal portion incl. coiled-coil)
# Sequence (P07949 713-1063 G810S limits assumed): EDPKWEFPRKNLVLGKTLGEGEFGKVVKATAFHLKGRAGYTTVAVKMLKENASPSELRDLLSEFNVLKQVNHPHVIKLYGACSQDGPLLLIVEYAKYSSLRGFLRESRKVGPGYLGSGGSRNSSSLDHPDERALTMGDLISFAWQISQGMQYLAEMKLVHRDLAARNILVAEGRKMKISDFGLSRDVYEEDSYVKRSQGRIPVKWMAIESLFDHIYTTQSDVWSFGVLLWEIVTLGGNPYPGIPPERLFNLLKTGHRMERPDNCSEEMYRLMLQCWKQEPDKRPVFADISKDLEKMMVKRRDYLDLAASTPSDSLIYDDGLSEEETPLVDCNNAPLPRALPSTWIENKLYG
# assay: RET G810S Mutant Cell Assay (phospho-RET Tyr1062)
# setupConditions: HEK-293 Kif5b-RET G810S, 1 hour incubation, phospho-RET normalized to GAPDH
testReadout: IC50 (µM)

Some compounds with known IC50 results, for comparison:
compound | testReadout | readoutValue
CC(C)n1c2c(c3c(N)ncnc31)-c1cc3c(F)cccc3n1C(=O)NC2 | IC50 | 0.812
COC(=O)c1ccc2c(Cl)c3n(c2c1)C(=O)NCc1c-3c2c(N)ncnc2n1C(C)C | IC50 | 0.191
CO[C@@H]1CCc2c(c3c(N)ncnc3n2C(C)C)-c2noc(C3CC3)c21 (single isomer, unassigned) | IC50 | 0.181
C[C@H](n1c2c(c3c(N)ncnc31)-c1noc(C3CC3)c1[C@@H](O)CC2)C(F)(F)F (single isomer, unassigned) [Example 146, 2,2,2-trifluoroacetate] | IC50 | 0.068
CC(C)n1c2c(c3c(N)ncnc31)-c1noc(C3CC3)c1C(=O)N(C)C2 | IC50 | 0.111

I. Nc1ncnc2c1c1c(n2C2CCOC2)CCC(O)c2c-1noc2C1CC1 (centres unmarked)
II. CC(C)n1c2c(c3c(N)ncnc31)-c1noc(C3CC3)c1[C@H](O)CC2 (single isomer, unassigned)
III. Nc1ncnc2c1c1c(n2C2CCC(O)C2)CCC(O)c2c-1noc2C1CC1 (centres unmarked)
IV. COC(=O)c1ccc(-n2c3c(c4c(N)ncnc42)-c2noc(C4CC4)c2C(O)CC3)cc1 (centres unmarked) [Example 113, 2,2,2-trifluoroacetate]
V. CC(C)n1c2c(c3c(N)ncnc31)-c1cc3ccc(C#N)cc3n1C(=O)NC2
Task item: Order field: IC50 | Direction: descending (largest first) # answer = labels listed in requested order
Reply: V, IV, I, III, II
(V: 0.57 µM, IV: 0.274 µM, I: 0.118 µM, III: 0.065 µM, II: 0.04 µM)
